The measured values listed here are drawn from patent US20230416363A1.

Biological target: T1, mPD-1-his (mouse, UniProt Q02242 25-167, limits assumed)
T1 construct: domain: IgV domain
T1 sequence: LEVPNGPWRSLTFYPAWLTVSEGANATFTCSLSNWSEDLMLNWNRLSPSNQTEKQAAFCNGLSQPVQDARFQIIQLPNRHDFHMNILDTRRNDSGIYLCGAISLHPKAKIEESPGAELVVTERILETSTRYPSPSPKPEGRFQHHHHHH
Test: SPR Biacore, mPD1-his
value.type: log10 of koff (log10 of the value in s⁻¹)
Short version: log10 scale, koff, s⁻¹.

Entry R3A9 (antibody, V domains shown, also called 7115A; mPD1 parental (R3A9)) VH: QVQLVQSGAEVKKPGASVKVSCKASGHTFTSYYIHWVRQAPGQGLEWMGIINPSGGSTSYAQKFQGRVTMTRDTSTSTVYMELSSLRSEDTAVYYCARDRAYGGAGDYWGQGTLVTVSS VL: DIQMTQSPSSLSASVGDRVTITCRASQSVGTWLAWYQQKPGKAPKLLIYSASTLQSGVPSRFSGSGSGTDFTLTISSLQPEDFATYYCQQSYSAPLTFGGGTKVEIK has what log10 of koff?
-2.19

Entry m2C1 (antibody, V domains shown, R3A9 derivative; also called m3CM (apparent misprint)) VH: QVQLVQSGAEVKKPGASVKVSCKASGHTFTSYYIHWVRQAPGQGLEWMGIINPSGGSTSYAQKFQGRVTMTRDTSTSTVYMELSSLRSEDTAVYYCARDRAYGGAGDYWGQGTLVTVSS VL: DIQMTQSPSSLSASVGDRVTITCRASRSISSWLAWYQQKPGKAPKLLIYAASSLQSGVPSRFSGSGSGTDFTLTISSLQPEDFATYYCQQSYSIPATFGQGTKVEIK has what log10 of koff?
-3.16

Entry m2A1 (antibody, V domains shown, R3A9 derivative; also called m2AM (apparent misprint)) VH: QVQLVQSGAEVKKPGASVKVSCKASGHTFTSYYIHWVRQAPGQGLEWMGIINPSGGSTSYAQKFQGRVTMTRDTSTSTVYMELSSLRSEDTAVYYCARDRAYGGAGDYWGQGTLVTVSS VL: DIQMTQSPSSLSASVGDRVTITCRASRGISSWLAWYQQKPGKAPKLLIYAASSLQSGVPSRFSGSGSGTDFTLTISSLQPEDFATYYCQQSYSPPWTFGQGTKVEIK has what log10 of koff?
-2.97

Entry m4D1 (antibody, V domains shown, R3A9 derivative) VH: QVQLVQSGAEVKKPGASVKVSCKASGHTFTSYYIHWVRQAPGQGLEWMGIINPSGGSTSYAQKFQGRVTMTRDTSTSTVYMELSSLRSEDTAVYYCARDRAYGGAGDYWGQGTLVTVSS VL: DIQMTQSPSSLSASVGDRVTITCRASQSISAWLAWYQQKPGKAPKLLIYKASSLESGVPSRFSGSGSGTDFTLTISSLQPEDFATYYCQQSYSPPATFGGGTKVEIK has what log10 of koff?
-3.70

Entry m3A7 (antibody, V domains shown, R3A9 derivative; also called 7115C) VH: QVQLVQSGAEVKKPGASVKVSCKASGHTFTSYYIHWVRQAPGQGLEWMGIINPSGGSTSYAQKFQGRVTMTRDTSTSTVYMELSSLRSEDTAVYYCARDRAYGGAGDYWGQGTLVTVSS VL: DIQMTQSPSSLSASVGDRVTITCRASRSISNWLAWYQQKPGKAPKLLIYAASSLQSGVPSRFSGSGSGTDFTLTISSLQPEDFATYYCQQSYSAPVTFGQGTKVEIK has what log10 of koff?
-3.08
